# System: SK-MEL-28
# Method: Phototherapeutic index, ratio of EC50 for cytotoxicity against human SK-MEL-28 cells in dark condition to EC50 for phototoxicity against human SK-MEL-28 cells preincubated for 16 hrs followed by irradiated with 100 J/cm2 625 nanometer red light for 60 mins
# if measured Ratio EC50 < 200: MET  # else: NOT MET

Smiles Representation	Group Label
COC1=C2c3c4c5c(c(O)cc(OC)c5c5c(OC)cc(O)c(c35)C1=O)C(=O)[C@H](OC)[C@]41C[C@](C)(O)[C@H]2[C@]1(C)O	NOT MET
COC1=C2c3c4c5c(c(O)cc(OC)c5c5c(OC)cc(O)c(c35)C1=O)C(=O)C[C@]41C[C@](C)(O)[C@H]2[C@]1(C)O	MET
COc1c(O)c2c(=O)cc(OC)c3c4c(OC)cc(=O)c5c(O)c(OC)c6c(c(c1C[C@@](C)(O)[C@@H]6C(C)=O)c23)c54	NOT MET
COC1=C2c3c4c5c(c(O)cc(OC)c5c5c(OC)cc(O)c(c35)C1=O)C(=O)[C@H](OC)[C@]41C[C@@](C)(O)[C@H]2[C@]1(C)O	NOT MET
COc1c(O)c2c(=O)cc(OC)c3c4c(OC)cc(O)c5c(=O)c(OC)c6c(c(c1[C@H](C(C)=O)[C@](C)(O)C6)c23)c54	NOT MET
COC1=C(C(C)=O)C2=C(C)Cc3c(OC)c(=O)c(O)c4cc(OC)c5c(OC)cc(O)c6c(c2c3c4c56)C1=O	NOT MET

---

# System: SK-MEL-28
# Method: Phototoxicity against human SK-MEL-28 cells assessed as reduction in cell viability preincubated for 16 hrs followed by irradiated with 100 J/cm2 625 nanometer red light for 60 mins and measured after 48 hrs by alamar blue assay
# Assay type: functional, cell-based
# Condition Info: SK-MEL-28, light or radiation study
pEC50: −log10 of the molar value.
Rule: pEC50 under 6 gives no, otherwise yes.

Smiles Representation	Group Label
COC1=C2c3c4c5c(c(O)cc(OC)c5c5c(OC)cc(O)c(c35)C1=O)C(=O)[C@H](OC)[C@]41C[C@@](C)(O)[C@H]2[C@]1(C)O	yes
COc1c(O)c2c(=O)cc(OC)c3c4c(OC)cc(=O)c5c(O)c(OC)c6c(c(c1C[C@@](C)(O)[C@@H]6C(C)=O)c23)c54	yes
COC1=C(C(C)=O)C2=C(C)Cc3c(OC)c(=O)c(O)c4cc(OC)c5c(OC)cc(O)c6c(c2c3c4c56)C1=O	yes
COc1c(O)c2c(=O)cc(OC)c3c4c(OC)cc(O)c5c(=O)c(OC)c6c(c(c1[C@H](C(C)=O)[C@](C)(O)C6)c23)c54	yes
COC1=C2c3c4c5c(c(O)cc(OC)c5c5c(OC)cc(O)c(c35)C1=O)C(=O)C[C@]41C[C@](C)(O)[C@H]2[C@]1(C)O	no
